Hello, the source for this data is patent US20180339041A1, in case you need it.

# System name: T1, C-terminally FLAG-tagged human Gas6 recombinant protein (hGas6-F) (human, UniProt Q14393 31-678, gamma-carboxylated glutamic acid residues in the Gla domain (producer cells co-express rat VKOR and human GGCX); positions not given)
# T1 construct: also called human Gas6-F; human Gas6 protein
# T1 sequence: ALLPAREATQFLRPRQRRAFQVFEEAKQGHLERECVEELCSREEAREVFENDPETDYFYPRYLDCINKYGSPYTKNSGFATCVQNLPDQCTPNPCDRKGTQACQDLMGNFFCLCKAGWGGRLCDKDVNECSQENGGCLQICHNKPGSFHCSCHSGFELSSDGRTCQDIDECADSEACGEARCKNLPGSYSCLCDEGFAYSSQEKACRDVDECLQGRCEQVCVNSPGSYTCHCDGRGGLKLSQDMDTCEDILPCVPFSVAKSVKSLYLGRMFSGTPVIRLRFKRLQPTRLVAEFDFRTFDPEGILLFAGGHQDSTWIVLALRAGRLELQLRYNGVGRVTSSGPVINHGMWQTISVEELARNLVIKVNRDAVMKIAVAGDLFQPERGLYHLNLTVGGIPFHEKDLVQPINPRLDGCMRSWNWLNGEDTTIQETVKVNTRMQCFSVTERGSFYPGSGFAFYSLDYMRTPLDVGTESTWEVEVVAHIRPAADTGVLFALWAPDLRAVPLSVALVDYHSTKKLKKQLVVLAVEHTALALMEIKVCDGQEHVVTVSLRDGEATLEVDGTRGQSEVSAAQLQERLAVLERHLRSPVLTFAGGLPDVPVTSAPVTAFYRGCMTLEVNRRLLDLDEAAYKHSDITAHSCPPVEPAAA
# Assay name: SPR Biacore T100, captured antibody, Gas6 analyte, first test
pKd: −log10 of the molar value.
Assay metric: pKd

Q: Input hzKM5321 LV3HV0 antibody (antibody, V domains shown, Humanized; variant human IgG4 constant region (EU S228P, L235E, R409K), human kappa; also called B-06; LV3HV0) VH: QVHLVQSGSELKKPGASVKISCKASGYTFTNYGMNWVRQAPGQGLEWMGWINTNTGEPTYTEEFKGRFVFSLDTSVTTSYLQISTLKAEDTAVYFCARDEGWFVYWGQGTLVTVSS VL: ETTLTQSPSSLSASTGDRVTITCITSTDIDDDMNWYQQKPGKAPKLLISEGNTLRPGVPSRFSGSGSGTDFTLTISSTQPEDFADYYCLQTDSVPLTFGQGTKVEIK , output reported pKd.
Ans: > 8.73

Q: Input hzKM5321 LV1aHV0 antibody (antibody, V domains shown, Humanized; variant human IgG4 constant region (EU S228P, L235E, R409K), human kappa; also called B-03; LV1aHV0) VH: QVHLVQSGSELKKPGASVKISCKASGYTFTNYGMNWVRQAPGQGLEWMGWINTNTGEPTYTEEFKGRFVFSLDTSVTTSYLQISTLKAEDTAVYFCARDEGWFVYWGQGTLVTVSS VL: ETTLTQSPSSLSASVGDRVTITCITSTDIDDDMNWYQQKPGKPPKLLISEGNTLRPGVPSRFSGSGSGTDFTLTISSLQPEDFATYYCLQTDSVPLTFGQGTKVEIK , output reported pKd.
Ans: > 8.41

Q: Input hzKM5320 LV3HV8 antibody (antibody, V domains shown, Humanized; variant human IgG4 constant region (EU S228P, L235E, R409K), human kappa; also called A-15) VH: QIQLVQSGPELKKPGASVKISCKASGYTFTNYGMNWVKQAPGQGLKWMGWINTETGEPTYSDDFKGRFVFSLDTSVTTAYLQISSLKAEDTATYFCAREDGYYGTLDYWGQGTTVTVSS VL: DVVMTQSPDSLAVSLGERVTINCKASQSVSNDVAWYQQKPGQSPKVLIYYASNRYTGVPDRFSGSGSGTDFTFTISSLQAEDVAVYFCQQDYSSPWTFGQGTKLEIK , output reported pKd.
Ans: > 8.64
